Test system: Escherichia coli TOP10
assay.name: shrunken log2 fold change of peptide-encoding DNA abundance (4.5 h post-induction vs induction); higher = less antimicrobial activity (less host growth inhibition)
test.conditions: time post-induction: 4.5 h; library: site-saturation at positions 5, 18, 19, 20
value.type: shrunken log2 fold change
Give the figure only, with no unit attached.

See these solved cases before continuing.
[[record]]
chain = "RRIRYRPPRLPRPRPRPQLRPRP"
tested_target = "Escherichia coli TOP10"
measured = -0.193

[[record]]
chain = "RRIRVRPPRLPRPRPRPFICPRP"
tested_target = "Escherichia coli TOP10"
measured = -0.331

[[record]]
chain = "RRIRDRPPRLPRPRPRPVCCPRP"
tested_target = "Escherichia coli TOP10"
measured = 0.967

[[record]]
chain = "RRIRKRPPRLPRPRPRPCISPRP"
tested_target = "Escherichia coli TOP10"
measured = 0.0183

[[record]]
chain = "RRIRGRPPRLPRPRPRPWDLPRP"
tested_target = "Escherichia coli TOP10"
measured = -0.0503


Assay Escherichia coli TOP10, sample RRIRARPPRLPRPRPRPNCTPRP , shrunken log2 fold change read: 0.172

Bench note, Escherichia coli TOP10: RRIRPRPPRLPRPRPRPEPQPRP , shrunken log2 fold change reads 0.268

Kindly note: Escherichia coli TOP10, RRIRPRPPRLPRPRPRPWSYPRP , shrunken log2 fold change value reported: -0.214

----------
# shrunken log2 fold change per record follows
Test system: Escherichia coli TOP10;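 further: peptides expressed intracellularly from a pBAD plasmid library in pooled LB shake-flask culture, induced with 0.3% L-arabinose, DNA abundance read by NGS, three biological replicates, DESeq2 with apeglm shrinkage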
assay.name: shrunken log2 fold change of peptide-encoding DNA abundance (4.5 h post-induction vs induction); higher = less antimicrobial activity (less host growth inhibition)
test.conditions: time post-induction: 4.5 h; library: site-saturation at positions 5, 18, 19, 20
Could you keep your reply to the number by itself?

[[record]]
chain = "RRIRVRPPRLPRPRPRPEAIPRP"
value_type = "shrunken log2 fold change"
measured = -0.0125

[[record]]
chain = "RRIRGRPPRLPRPRPRPIQYPRP"
value_type = "shrunken log2 fold change"
measured = -0.0751

[[record]]
chain = "RRIRWRPPRLPRPRPRPREYPRP"
value_type = "shrunken log2 fold change"
measured = 0.0698

[[record]]
chain = "RRIRGRPPRLPRPRPRPTFDPRP"
value_type = "shrunken log2 fold change"
measured = 0.548

[[record]]
chain = "RRIRSRPPRLPRPRPRPTYGPRP"
value_type = "shrunken log2 fold change"
measured = -0.303

[[record]]
chain = "RRIRGRPPRLPRPRPRPMYIPRP"
value_type = "shrunken log2 fold change"
measured = -0.396


Considering RRIRTRPPRLPRPRPRPAFEPRP , its shrunken log2 fold change with Escherichia coli TOP10 was recorded as 0.219

Escherichia coli TOP10 assay, sequence RRIRSRPPRLPRPRPRPLESPRP , recorded shrunken log2 fold change = 0.14

Observed shrunken log2 fold change on Escherichia coli TOP10, entry RRIRVRPPRLPRPRPRPIKHPRP , equals -0.505

Reported Escherichia coli TOP10 shrunken log2 fold change for item RRIRFRPPRLPRPRPRPWFWPRP was -0.285

Observed shrunken log2 fold change on Escherichia coli TOP10, entry RRIRKRPPRLPRPRPRPEFLPRP , equals -0.00158

Summary: RRIRKRPPRLPRPRPRPCYKPRP , Escherichia coli TOP10, shrunken log2 fold change = 0.0747

For the sequence RRIRWRPPRLPRPRPRPCDPPRP , the measured shrunken log2 fold change on Escherichia coli TOP10 was 0.0863

Assay Escherichia coli TOP10, sample RRIRRRPPRLPRPRPRPWGCPRP , shrunken log2 fold change read: 0.0658

Value (shrunken log2 fold change, Escherichia coli TOP10) for record RRIRHRPPRLPRPRPRPARYPRP = 0.0518
